Cited source for all entries: ChEMBL document CHEMBL1201862

- System: NCI-H522
- protocol summary: NCI tumour cell line growth inhibition, 48 h
Activity calls are given as the source filed them. Rule as the data show it: active = GI50 up to about 1.1 µM and inactive = higher.
Labels: active, inactive

{"columns": ["compound", "label"],
 "data": [
  ["CC(=O)N1C(C(=O)NN2CCOCC2)CSC1c1ccccc1 (stereo not given)", "inactive"],
  ["CN(C)CC1(Cc2ccccc2)CC/C(=C\\c2ccccc2)C1=O (stereo not given)", "inactive"],
  ["O=C1/C(=C\\c2ccc([N+](=O)[O-])cc2)Sc2scc(-c3ccc(O)c(O)c3)[n+]21", "inactive"],
  ["Cc1ccc(S(=O)(=O)N/N=C/C(=C/c2ccc(Cl)cc2)CC(/C=N/NS(=O)(=O)c2ccc(C)cc2)=C\\c2ccc(Cl)cc2)cc1", "inactive"],
  ["CCOC(=O)/C(=C\\c1cccs1)P(=O)(OCC)OCC", "inactive"],
  ["Cc1ccc(/C=C2\\N=C(N3CCCC(CO)C3)NC2=O)cc1 (stereo not given)", "inactive"],
  ["Cc1[nH]c2ncn(N)c(=N)c2c1Cc1ccccc1", "inactive"],
  ["CCc1ccc(NCc2cc(OC)c(OC)c(OC)c2)cc1", "active"],
  ["C/C=C/COc1cc(NC(=S)c2ccoc2C)ccc1OC", "inactive"],
  ["Cc1nnc(N)nc1C/C=C/C(Sc1ccc(Cl)cc1)c1ccccc1 (stereo not given)", "inactive"],
  ["CCCCCC1C2C(=O)NC(=O)C1C(=O)NC2=O (stereo not given)", "inactive"],
  ["CC(C)C(=O)CP(=O)(O)O", "inactive"],
  ["CCOC(=O)C1(C(=O)OCC)[C@@H](c2ccccc2)C2=NO[C@@H]3CCC[C@H]1[C@H]23", "inactive"],
  ["CSc1nc(NC(C)C)c2c(n1)Sc1nc3ccccc3n1C2O (stereo not given)", "inactive"],
  ["CC(C)[Si](Oc1ccc(CC2N(C(=O)c3ccc([N+](=O)[O-])cc3)C(CCc3ccccc3)CC2(C)C=O)cc1)(C(C)C)C(C)C (stereo not given)", "inactive"]
]}

---

Catalogue of GI50 readings, one per entry.
- Test system: OVCAR-3
- protocol summary: NCI tumour cell line growth inhibition, 48 h
Activity calls are given as the source filed them. Rule as the data show it: active = GI50 up to about 1.1 µM and inactive = higher.

{"columns": ["molecule", "GI50"],
 "data": [
  ["CCOC(=O)/C=C/n1c2ccccc2c(=O)c2cc(OC)ccc21", "> 100 µM (inactive)"],
  ["COC(=O)NN=C1C(C)(C)C(=O)C1(C)C", "> 100 µM (inactive)"],
  ["CC(=O)OC(OC(C)=O)c1ccc2ccc3cccc4ccc1c2c34", "26.7 µM (inactive)"],
  ["O=c1cc(CO)oc(C(O)c2ccccc2)c1O (stereo not drawn)", "> 100 µM (inactive)"],
  ["CCN(CC)CCCC(C)Nc1c2ccc(Cl)cc2nc2ccc(OC)cc12 (stereo not drawn)", "2.85 µM (inactive)"],
  ["NC(=S)N/N=C\\c1ccc(OCc2cccc(COc3ccc(/C=N/NC(N)=S)cc3)n2)cc1", "32.7 µM (inactive)"],
  ["CC(=O)C(CN(C)C)C(c1ccccc1)c1c(O)c2ccccc2oc1=O (stereo not drawn)", "> 100 µM (inactive)"],
  ["N#CC(N)c1ccc(OCCCCCCCCCCOc2ccc(C(N)C#N)cc2)cc1 (stereo not drawn)", "> 100 µM (inactive)"],
  ["CC(C)(CNC(=O)/C(Cl)=C(/Cl)C(=O)O)CNC(=O)/C(Cl)=C(/Cl)C(=O)O", "> 100 µM (inactive)"],
  ["O=C1/C(=C/c2ccc(Br)s2)NC(=S)N1CN1CCCCC1", "22.4 µM (inactive)"],
  ["COc1ccc(CN2C[C@H]3[C@@H](CC(=O)O[C@H]3C)CC2=O)cc1", "> 100 µM (inactive)"],
  ["N=C(N)N/N=C(/c1nc2ccc([N+](=O)[O-])cc2[nH]c1=O)C(O)c1ccc([N+](=O)[O-])cc1 (stereo not drawn)", "94.2 µM (inactive)"],
  ["N#Cc1c(-c2ccccc2)[nH]c2ccc(Cl)cc2c1=O", "> 100 µM (inactive)"],
  ["CCOC(=O)c1c(-c2ccccc2)oc(-c2ccccc2)c1C(=O)OCC", "> 100 µM (inactive)"],
  ["O=C(/C=C1\\Nc2ccccc2N\\C1=C/C(=O)c1ccc(F)cc1)c1ccc(F)cc1", "48.2 µM (inactive)"],
  ["CSC(C1c2ccccc2N(C)c2[nH]c(=O)n(C)c(=O)c21)S(=O)(=O)c1ccc(C)cc1 (stereo not drawn)", "> 100 µM (inactive)"],
  ["COC(=O)CCC(NC(=S)N/N=C/c1ccco1)C(=O)OC (stereo not drawn)", "> 100 µM (inactive)"],
  ["N=C(N)NS(=O)(=O)c1ccc(NC(=O)c2cccc3c(NNc4ccc(S(N)(=O)=O)cc4)c4ccccc4nc23)cc1", "36.1 µM (inactive)"],
  ["COc1ccc2c(c1)CCCC(Br)C2=O (stereo not drawn)", "9.08 µM (inactive)"],
  ["COC(=O)Cc1cccc2c(=O)c(S(=O)(=O)NC(=O)Nc3ccc(Cl)cc3)c(-c3ccccc3)oc12", "79.8 µM (inactive)"],
  ["C=CCCCCCCCCCOC1C=CC(O)C(CO)O1 (stereo not drawn)", "38 µM (inactive)"],
  ["COc1cc(CNC(=O)CCCCCCCCCCSC#N)ccc1O", "13.1 µM (inactive)"],
  ["COC(=O)c1c(C(=O)OC)c2ccccn2c1-c1cc(OC)c(Br)c(=O)o1", "> 100 µM (inactive)"],
  ["CC1(C)[C@@H](Cn2cnc3c(O)nc(N)nc32)CC[C@@]1(C)CO", "> 100 µM (inactive)"],
  ["O=C(O)Cc1cccc2c1OC(c1ccccc1)C(Cl)(C(=O)c1ccccc1)C2=O (stereo not drawn)", "17.7 µM (inactive)"],
  ["Cc1ccc2nc(-c3ccccc3)cc(=O)n2c1", "> 100 µM (inactive)"],
  ["CCc1cccc(C(C)C)c1NC(=O)C(=O)C1C(=O)Nc2ccccc2[S+]1[O-] (stereo not drawn)", "> 100 µM (inactive)"],
  ["COc1cc(Cc2cc(OC)c(OC)c(OC)c2)ccc1O", "9.23 µM (inactive)"],
  ["C=Cc1nc(C#N)c(N)o1", "> 100 µM (inactive)"],
  ["CC1=C(C(=O)NCCc2ccccc2)CC(C(=O)NCCc2ccccc2)=C(C)N1", "88.3 µM (inactive)"],
  ["C=C(C)C1CC2=C(C(=O)OC)C=C(O2)C(C(=C)C)[C@@H]2OC(=O)/C(=C\\C1O)[C@H]2N(C)C (stereo partly drawn)", "12.6 µM (inactive)"],
  ["CCC12CCCN(Cc3ccccc3)C1c1c([nH]c3ccccc13)C(C(=O)OC)C2 (stereo not drawn)", "> 10 µM (inactive)"],
  ["CCOc1ccc(C2=C(Cl)c3cc(OC)c(OC)cc3C2Cl)cc1 (stereo not drawn)", "59 µM (inactive)"]
]}
